Provenance of the data: the supplement of paper PMC8975748

# System: Saccharomyces cerevisiae BY4741 SeMeCo community
# Test Method Notes: z-score of subpopulation abundance vs DMSO median, subpopulation auxotrophic for UM; higher = larger share of this subpopulation than in DMSO controls
# Condition Details: 10 µM; 24 h; SM minimal medium; subpopulation (auxotrophy): UM
Where a name gives a salt, the structure may show the parent alone.
If the reported z-score of subpopulation abundance equals or exceeds -0.6, assign y. If not, assign n.

[[record]]
molecule = "C[N+]1(C)[C@@H]2C[C@@H](OC(=O)[C@H](CO)c3ccccc3)C[C@H]1[C@@H]1O[C@@H]12 [Methscopolamine]"
test_system = "Saccharomyces cerevisiae BY4741 SeMeCo community"
qualitative_label = "y"


Is z-score of subpopulation abundance for C=CC[C@]1(O)CC[C@H]2[C@@H]3CCC4=CC(=O)CCC4=C3C=C[C@@]21C [Altrenogest] at or above -0.6?
n

Is z-score of subpopulation abundance for CN1[C@@H]2CC[C@H]1C[C@@H](OC(=O)C(CO)c1ccccc1)C2 (stereo partly drawn) [Atropine sulfate monohydrate] at or above -0.6?
y

Is z-score of subpopulation abundance for CN1c2ccccc2C(NCCCCCCC(=O)O)c2ccc(Cl)cc2S1(=O)=O (stereo not drawn) [Tianeptine sodium] at or above -0.6?
y

====

# Test system: Saccharomyces cerevisiae BY4741 SeMeCo community
# Test Method Notes: z-score of subpopulation abundance vs DMSO median, subpopulation auxotrophic for UM; higher = larger share of this subpopulation than in DMSO controls
# Condition Details: 10 µM; 24 h; SM minimal medium; subpopulation (auxotrophy): UM
Counter-ions that a name gives are not always drawn.
Measured Metric: z-score of subpopulation abundance
I'd appreciate a reply containing only the number, no unit.

In the examples that follow, each entry is paired with its recorded z-score of subpopulation abundance.
[[record]]
molecule = "CCN(CC)CCOC(=O)C(O)(c1ccccc1)c1ccccc1 [Benactyzine hydrochloride]"
measured_metric = "z-score of subpopulation abundance"
obs_value = 0.21

[[record]]
molecule = "CN1[C@@H]2CC[C@H]1C[C@@H](OC(=O)[C@H](CO)c1ccccc1)C2 [Hyoscyamine]"
measured_metric = "z-score of subpopulation abundance"
obs_value = -0.14

[[record]]
molecule = "O=C(O[C@H]1C[C@H]2CC[C@@H](C1)[N+]21CCCC1)C(O)(c1ccccc1)c1ccccc1 [Trospium chloride]"
measured_metric = "z-score of subpopulation abundance"
obs_value = -0.43

[[record]]
molecule = "CN1[C@@H]2C[C@@H](OC(=O)[C@H](CO)c3ccccc3)C[C@H]1[C@@H]1O[C@@H]12 [Scopolamine HBr]"
measured_metric = "z-score of subpopulation abundance"
obs_value = -0.95

[[record]]
molecule = "CN(C)C(=O)Oc1ccc[n+](C)c1 [Pyridostigmine Bromide]"
measured_metric = "z-score of subpopulation abundance"
obs_value = 0.25

[[record]]
molecule = "Nc1ccncc1 [4-Aminopyridine]"
measured_metric = "z-score of subpopulation abundance"
obs_value = -0.05


z-score of subpopulation abundance in this record for CC(=O)OCC1=C(C(=O)O)N2C(=O)C(N)C2SC1 (configuration not stated) [7-Aminocephalosporanic acid] : 0

====

# Tested on: Saccharomyces cerevisiae BY4741 SeMeCo community
# Test Method Notes: z-score of subpopulation abundance vs DMSO median, subpopulation auxotrophic for HM; higher = larger share of this subpopulation than in DMSO controls
# Condition Details: 10 µM; 24 h; SM minimal medium; subpopulation (auxotrophy): HM
Structures can show the parent of a compound that is named as a salt.
If the reported z-score of subpopulation abundance equals or exceeds -0.2, assign T. If not, assign F.

[[record]]
compound = "CCN(CC)CCOC(=O)C(O)(c1ccccc1)c1ccccc1 [Benactyzine hydrochloride]"
qualitative_label = "F"

[[record]]
compound = "C=C(C)[C@H]1Cc2c(ccc3c2O[C@@H]2COc4cc(OC)c(OC)cc4[C@@H]2C3=O)O1"
qualitative_label = "T"

[[record]]
compound = "CC1(C)SC2C(N)C(=O)N2C1C(=O)O (centres undefined)"
qualitative_label = "T"

[[record]]
compound = "O=c1cccc2n1C[C@@H]1CNC[C@H]2C1"
qualitative_label = "T"

[[record]]
compound = "N#Cc1nn(-c2c(Cl)cc(C(F)(F)F)cc2Cl)c(N)c1[S+]([O-])C(F)(F)F (centres undefined)"
qualitative_label = "F"

[[record]]
compound = "NCCc1c[nH]c2ccc(O)cc12 [Serotonin HCl]"
qualitative_label = "T"

[[record]]
compound = "CN(C)[C@@H]1C(=O)C(C(N)=O)=C(O)[C@@]2(O)C(=O)C3=C(O)c4c(O)cccc4[C@@](C)(O)[C@H]3C[C@@H]12 [Tetracycline HCl]"
qualitative_label = "T"

[[record]]
compound = "Oc1cccc2cccnc12 [8-Hydroxyquinoline]"
qualitative_label = "T"


Is z-score of subpopulation abundance for CCCN1C[C@H](CSC)C[C@@H]2c3cccc4[nH]cc(c34)C[C@H]21 [Pergolide Mesylate] at or above -0.2?
F

Is z-score of subpopulation abundance for C[N+](C)(C)CCCCCCCCCC[N+](C)(C)C [Decamethonium Bromide] at or above -0.2?
F

====

Catalogue of compounds with associated z-score of subpopulation abundance
# System: Saccharomyces cerevisiae BY4741 SeMeCo community
# Test Method Notes: z-score of subpopulation abundance vs DMSO median, subpopulation auxotrophic for HUM; higher = larger share of this subpopulation than in DMSO controls
# Condition Details: 10 µM; 24 h; SM minimal medium; subpopulation (auxotrophy): HUM

z-score of subpopulation abundance in this record for CC1(C)SC2C(N)C(=O)N2C1C(=O)O (configuration not stated) [6-Aminopenicillanic acid] : 0.65

z-score of subpopulation abundance in this record for C#C[C@]1(O)C=C[C@H]2[C@@H]3CCC4=CC(=O)CC[C@@H]4[C@H]3CC[C@@]21CC [Gestodene] : -0.17

z-score of subpopulation abundance in this record for O=C(O[C@H]1C[C@H]2CC[C@@H](C1)[N+]21CCCC1)C(O)(c1ccccc1)c1ccccc1 [Trospium chloride] : -0.32

z-score of subpopulation abundance in this record for CCOC(=O)Nc1ccc(NCc2ccc(F)cc2)cc1N [Retigabine] : -0.05

z-score of subpopulation abundance in this record for CC(=O)O[C@H]1C[C@@H]2CC[C@@H]3[C@H](CC[C@@]4(C)[C@H]3C[C@H]([N+]3(C)CCCCC3)[C@@H]4OC(C)=O)[C@@]2(C)C[C@@H]1[N+]1(C)CCCCC1 [Pancuronium dibromide] : -0.72

z-score of subpopulation abundance in this record for C=CC[C@]1(O)CC[C@H]2[C@@H]3CCC4=CC(=O)CCC4=C3C=C[C@@]21C [Altrenogest] : -0.44

z-score of subpopulation abundance in this record for CCCCCCCCCCCCCCCC[n+]1ccccc1 [Cetylpyridinium Chloride] : 20.2

====

# System: Saccharomyces cerevisiae BY4741 SeMeCo community
# Test Method Notes: z-score of subpopulation abundance vs DMSO median, subpopulation auxotrophic for HL; higher = larger share of this subpopulation than in DMSO controls
# Condition Details: 10 µM; 24 h; SM minimal medium; subpopulation (auxotrophy): HL
Structures can show the parent of a compound that is named as a salt.
If the reported z-score of subpopulation abundance equals or exceeds -0.3, assign fulfilled. If not, assign not fulfilled.

[[record]]
molecule = "NCCc1c[nH]c2ccc(O)cc12 [Serotonin HCl]"
test_system = "Saccharomyces cerevisiae BY4741 SeMeCo community"
qualitative_label = "not fulfilled"

[[record]]
molecule = "CC(C)(O)C(Cl)(Cl)Cl"
test_system = "Saccharomyces cerevisiae BY4741 SeMeCo community"
qualitative_label = "not fulfilled"

[[record]]
molecule = "Nc1nc(N)nc(NC2CC2)n1"
test_system = "Saccharomyces cerevisiae BY4741 SeMeCo community"
qualitative_label = "not fulfilled"

[[record]]
molecule = "CC(=O)OCC1=C(C(=O)O)N2C(=O)C(N)C2SC1 (stereo unspecified)"
test_system = "Saccharomyces cerevisiae BY4741 SeMeCo community"
qualitative_label = "fulfilled"


Is z-score of subpopulation abundance for `C=C(C)[C@H]1Cc2c(ccc3c2O[C@@H]2COc4cc(OC)c(OC)cc4[C@@H]2C3=O)O1` at or above -0.3?
fulfilled

Is z-score of subpopulation abundance for `C[CH2][Hg][S]c1ccccc1C(=O)[O-].[Na+]` at or above -0.3?
fulfilled

Is z-score of subpopulation abundance for CC[N+](C)(CC)CCOC(=O)C(O)(c1ccccc1)c1ccccc1 [Methylbenactyzine Bromide] at or above -0.3?
not fulfilled

Is z-score of subpopulation abundance for CCN1CC2(OC(=O)c3ccccc3NC(C)=O)CCC(OC)C34C1C(CC23)C1(O)CC(OC)C2CC4C1(O)C2OC (stereo unspecified) at or above -0.3?
fulfilled

Is z-score of subpopulation abundance for CCCN1C[C@H](CSC)C[C@@H]2c3cccc4[nH]cc(c34)C[C@H]21 [Pergolide Mesylate] at or above -0.3?
not fulfilled

Is z-score of subpopulation abundance for `COc1ccc(C=O)cc1` at or above -0.3?
fulfilled

Is z-score of subpopulation abundance for COc1ccc(C(CN(C)C)C2(O)CCCCC2)cc1 (stereo unspecified) at or above -0.3?
not fulfilled
